- assay.details: AUC (0 to infinity) in male Sprague-Dawley rat at 5 mg/kg, iv measured for 24 hrs by LC-MS/MS analysis
- Assay type: ADME, organism-based
- recorded.conditions: in vivo
readout: AUC(0-inf) (ng·h/mL)
Numbers only, in ng·h/mL.

Tell me its AUC(0-inf) given `CN1C(=O)c2sccc2N(C)c2nc(Nc3ccc(S(N)(=O)=O)cc3)ncc21` as the entry.
1270

---

- measurement.target: Non-receptor tyrosine-protein kinase TYK2 (Homo sapiens, UniProt P29597)
- Sequence (P29597 whole entry): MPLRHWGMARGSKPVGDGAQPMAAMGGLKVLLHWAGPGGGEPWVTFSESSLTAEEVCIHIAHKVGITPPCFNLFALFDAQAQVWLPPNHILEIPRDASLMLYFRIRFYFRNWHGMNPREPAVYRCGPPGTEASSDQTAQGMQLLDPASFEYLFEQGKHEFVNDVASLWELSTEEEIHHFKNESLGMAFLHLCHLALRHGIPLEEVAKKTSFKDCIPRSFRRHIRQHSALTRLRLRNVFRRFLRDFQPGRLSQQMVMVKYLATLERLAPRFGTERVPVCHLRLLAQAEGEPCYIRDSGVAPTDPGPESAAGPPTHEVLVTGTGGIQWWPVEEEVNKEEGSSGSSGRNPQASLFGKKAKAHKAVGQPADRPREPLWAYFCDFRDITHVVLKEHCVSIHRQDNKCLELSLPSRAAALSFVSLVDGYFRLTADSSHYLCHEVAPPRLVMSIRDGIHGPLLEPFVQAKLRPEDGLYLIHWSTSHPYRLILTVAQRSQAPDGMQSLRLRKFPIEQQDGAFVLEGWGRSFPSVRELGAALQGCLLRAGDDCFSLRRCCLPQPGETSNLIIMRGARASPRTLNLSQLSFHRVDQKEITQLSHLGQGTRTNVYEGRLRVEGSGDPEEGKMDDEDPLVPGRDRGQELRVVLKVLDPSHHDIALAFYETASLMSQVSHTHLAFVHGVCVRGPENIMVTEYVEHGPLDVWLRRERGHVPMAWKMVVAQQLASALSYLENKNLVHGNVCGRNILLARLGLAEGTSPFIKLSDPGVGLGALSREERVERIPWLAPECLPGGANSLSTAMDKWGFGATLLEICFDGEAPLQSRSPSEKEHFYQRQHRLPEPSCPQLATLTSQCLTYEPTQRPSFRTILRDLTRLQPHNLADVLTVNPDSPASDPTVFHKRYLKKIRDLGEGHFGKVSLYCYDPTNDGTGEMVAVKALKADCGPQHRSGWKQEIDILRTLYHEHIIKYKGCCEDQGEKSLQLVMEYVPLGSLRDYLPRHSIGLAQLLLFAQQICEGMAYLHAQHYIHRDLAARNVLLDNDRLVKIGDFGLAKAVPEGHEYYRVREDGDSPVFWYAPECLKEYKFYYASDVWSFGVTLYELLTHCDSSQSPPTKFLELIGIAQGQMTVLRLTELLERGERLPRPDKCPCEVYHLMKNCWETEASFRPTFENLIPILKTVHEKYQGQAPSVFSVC
readout: Kd (nM)
Give bare numbers, in nM.

Tell me its Kd given `CN1C(=O)c2sccc2N(C)c2nc(Nc3ccc(S(N)(=O)=O)cc3)ncc21` as the entry.
5
